Values compiled from PubChem BioAssay.

test_details: small-molecule microarray binders of probe aShh, primary screen, biochemical, biotinylated probe, 635/667 nm fluorescence (AID 1114);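 further: probe is biotin-labelled aShh protein from a stem cell growth factor screen; measures binding of labelled protein to compounds printed on the slide; score merges feature fluorescence at 667 nm with signal-to-noise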
run_parameters: higher = more signal
composite z-score reference
# print the numeric value only

These recorded examples may help you get a feel for the data.
Cc1cc2c(nc1C)CCCN2CC(O)CN1CCCc2nc(C)c(C)cc21	0.699
CCOC(=O)NN=C1C[C@@H](O)[C@@H](O)[C@@H]2[C@@H]3C(=O)N([C@@H](C)c4ccccc4)C(=O)[C@@H]3CC[C@H]12	-0.117
COc1ccc(O[C@H]2C=C[C@@H](c3ccccc3)O[C@@H]2COC(=O)CCC(C)=NO[C@@H]2O[C@H](COC(C)=O)[C@@H](OC(C)=O)[C@H](OC(C)=O)[C@H]2OC(C)=O)cc1	-0.206
CC(=O)OC[C@H]1O[C@H](CCON=C2[C@H]3CCn4c(=O)n(-c5ccccc5)c(=O)n4[C@H]3[C@H](O)[C@@H]3O[C@H]23)C=C[C@@H]1OC(C)=O	0.089
CCOC(=O)CCN1C(=O)[C@H]2[C@H]3[C@H](O)[C@H](O)CC(=NOCc4ccccc4)[C@H]3CC[C@H]2C1=O	-0.0977
CCOC(=O)NN=C1C[C@@H](O)[C@@H](O)[C@@H]2[C@@H]3C(=O)N(c4cccc(Oc5ccccc5)c4)C(=O)[C@@H]3CC[C@H]12	-0.388
CCOC(=O)C1=NO[C@]2(C=C(Br)C3(OCCCO3)[C@H]3O[C@H]32)C1	-0.0879
CCOC(=O)[C@H](Cc1ccccc1)NC(=O)CCC1CC(OC(=O)NCc2cccc3ccccc23)CC2(CCCC(COC(=O)NCc3cccc(C(F)(F)F)c3)O2)O1 (some centres undefined)	-0.345

Qu. Hello, please tell me recorded composite z-score for this one: `CCOC(=O)NN=C1C[C@@H](O)[C@@H](O)[C@@H]2[C@@H]3C(=O)N(Cc4ccccc4)C(=O)[C@@H]3CC[C@H]12`
Ans. -0.0626
